Experiment: NCI Yeast Anticancer Drug Screen. Data for the mlh1 rad18 strain (AID 175)
Details: S. cerevisiae mlh1 rad18 strain growth inhibition; at 50.0 µM
This is part of a sample that, as a whole, favours compounds with a hit. Of some 79,000 tested, about 15% had one in any assay. Activity calls are given as the source filed them. Rule as the data show it: active = growth inhibition above about 70%; inactive = the rest.
// one of active, inactive, no free text

compound="O=C(O)c1cc(Cc2ccc(O)c(C(=O)O)c2)ccc1O (tested in a mixture with another compound)" group=active
compound="COc1cc(C2c3cc4c(cc3C(O)[C@H]3COC(=O)C23)OCO4)cc(OC)c1O (some centres not stated)" group=inactive
compound="O=C1CC2OCC=C3CN4CCC56c7ccccc7N1C5C2C3CC46O (configuration not stated)" group=inactive
compound=O=NN1CCOC1=NC1CCCCC1 group=inactive
compound="CCOC(=O)C(c1ccsc1)P(=O)(OCC)OCC (configuration not stated)" group=inactive
compound="O=C(O)C1CC2c3ccccc3C1([N+](=O)[O-])c1ccccc12 (configuration not stated)" group=inactive
compound=Cc1c(OCC(=O)N/N=C/c2ccc(N(CCCl)CCCl)cc2)ccc2c(=O)c3ccccc3oc12 group=inactive
compound="NCC(O)c1ccc2c(c1)OCO2 (configuration not stated)" group=inactive

Dear colleague, could you share the recorded outcome for COc1ccc(-c2c[se]c(=S)s2)cc1 when you have a moment? inactive

----------
Experiment: NCI Yeast Anticancer Drug Screen. Data for the cln2 rad14 strain (AID 165);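 also: 0% = growth equal to vehicle treated cultures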
Details: S. cerevisiae cln2 rad14 strain, at 5.0 µM (retest, dose inferred, filed as 0.5), stronger effect = higher value
Procedure: Growth inhibition of yeast strains with defined genetic alterations is measured as a screen for potential anti-cancer activity. Selected strains with alterations in DNA damage repair or cell cycle control were exposed to compounds and growth inhibition was measured relative to vehicle treated controls. The strain used in this assay is cln2 rad14
This is part of a sample that, as a whole, favours compounds with a hit. Of some 79,000 tested, about 15% had one in any assay.
// label = t if growth inhibition is not less than 20%, otherwise f

molecule=C/C(=N\N=C(/[Se])N1CCC(C)CC1)c1ccccn1 group=f
molecule=CCC[CH2][Sn]1([CH2]CCC)[O]C(=O)c2cccnc2[S]1 group=t
molecule=c1ccc(N=c2snc(-c3ccccc3)s2)cc1 group=f
molecule=CN=C(N)N/N=C(\C)c1ccc2sc3ccc(/C(C)=N/NC(N)=NC)cc3c2c1 group=f
molecule=Nc1c([N+](=O)[O-])cc(Cl)cc1[N+](=O)[O-] group=f

Hi team, for CC(=O)[CH-]C(C)=O.CC(=O)[CH-]C(C)=O.N=CC=N.[Sn+2] , is the recorded growth inhibition at or above 20%? t

What about CCOP(=O)(OCC)/C(C#N)=C/c1cccc(F)c1 ? f

What about CC[n+]1c(/C=C/c2ccc(N(CCCl)CCCl)cc2)ccc2cc(Br)ccc21 ? t

----------
Assay: NCI Yeast Anticancer Drug Screen. Data for the mec2-1 strain (AID 157)
Details: S. cerevisiae mec2-1 strain, at 50.0 µM, stronger effect = higher value
Compounds without any hit were thinned out: in the full panel of roughly 79,000, 15% have a hit.
readoutKind: growth inhibition (%)
Numbers only, in %.

compound=O=S(=O)(F)c1cc(Cl)c(O)cc1Cl readoutkind="growth inhibition" observedresult=57.8

# return growth inhibition for each item in the list
1. C/C=C(\CC)C1(C(C)C)C(=O)NC(=O)NC1=O
2. Nc1cc(N)nc(N)n1

1. -1.35
2. -2.9

Origin of measurements: PubChem BioAssay (NCI)
